test system: HOP-92 NSCLC; assay: NCI-60 one-dose screen, 48 h; details: 10 µM unless noted
This is part of a sample that, as a whole, favours compounds with a hit. Of some 83,000 tested, about 20% had one in any assay. Active and inactive are the calls of the source. Rule for the calls: active = growth percent below 10; inactive = the rest.
The categories you may choose from are 1 (yes) (active), 0 (no) (inactive)

-- ask Just curious, what result did COCCCNCC(=O)Nc1c(C)cccc1C get here?
-- reply 0 (no)

-- ask Now consider NC(N)=N/N=C/c1ccccc1 and answer again.
-- reply 0 (no)

-- ask Same read-out for CCCNC(=S)N/N=C(\C)c1ccccn1 ?
-- reply 0 (no)

-- ask What do we get for CO[C@@]12[C@@H]3NC3CN1C1=C(C(=O)C(N)=C(C)C1=O)[C@@H]2COC(N)=O (some centres not stated) ?
-- reply 0 (no)

-- ask Then this compound: COc1ccc(Br)c2ccccc12
-- reply 0 (no)

-- ask Follow-up item: CCCc1n(Cc2ccc3ccccc3c2)c2ccccc2[n+]1Cc1ccc2ccccc2c1
-- reply 1 (yes)

-- ask Follow-up item: C/C(=N\NC(=S)Nc1ccccc1)c1ccccn1
-- reply 0 (no)

-- ask Input Cc1nc([C@H]2CC[C@H]3[C@@H]4CCC5=CC(=O)CC[C@]5(C)[C@H]4CC[C@]23C)cs1
-- reply 0 (no)

-- ask What do you have for COc1cc(/C=C/c2ccc3c(Br)cc(Br)c(O)c3n2)ccc1O ?
-- reply 0 (no)

-- ask Then what about the compound Cc1cccc(C(=O)O)n1 ?
-- reply 1 (yes)

-- ask # iterate: CC(C)c1ccc(Cn2ccc3c4c(N)nc(NC5CC5)nc4ccc32)cc1
-- reply 1 (yes)

-- ask Record: CCN(CC)c1ccc(C(=N)c2ccc(N(C)C)cc2)cc1
-- reply 1 (yes)
